B1: library; a variant is named by its letters at N, in order (parent)
chain: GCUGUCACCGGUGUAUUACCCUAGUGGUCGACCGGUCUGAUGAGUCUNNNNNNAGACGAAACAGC

variants of: B1; test: FACS-Seq fitted mean relative fluorescence mCherry/BFP with ligand (log10 relative fluorescence); ligand: hypoxanthine (xanthine aptamer); ligand concentration (+) FACS-Seq: 5 mM; higher = higher reporter protein expression; settings: HEK293T, ligand present: yes
Classify by measured FACS-Seq fitted mean (log10): Criterion met if it is equal to or exceeds 0.5, Criterion not met if it is smaller.

{"biosequence": "GCUGUCACCGGUGUAUUACCCUAGUGGUCGACCGGUCUGAUGAGUCUCAUUAAAGACGAAACAGC [CAUUAA]", "group label": "Criterion not met"}
{"biosequence": "GCUGUCACCGGUGUAUUACCCUAGUGGUCGACCGGUCUGAUGAGUCUAGGCGGAGACGAAACAGC [AGGCGG]", "group label": "Criterion met"}
{"biosequence": "GCUGUCACCGGUGUAUUACCCUAGUGGUCGACCGGUCUGAUGAGUCUGGAUCGAGACGAAACAGC [GGAUCG]", "group label": "Criterion met"}
{"biosequence": "GCUGUCACCGGUGUAUUACCCUAGUGGUCGACCGGUCUGAUGAGUCUGGGAAGAGACGAAACAGC [GGGAAG]", "group label": "Criterion not met"}
{"biosequence": "GCUGUCACCGGUGUAUUACCCUAGUGGUCGACCGGUCUGAUGAGUCUAAUCGGAGACGAAACAGC [AAUCGG]", "group label": "Criterion met"}
{"biosequence": "GCUGUCACCGGUGUAUUACCCUAGUGGUCGACCGGUCUGAUGAGUCUGUGGGGAGACGAAACAGC [GUGGGG]", "group label": "Criterion not met"}
{"biosequence": "GCUGUCACCGGUGUAUUACCCUAGUGGUCGACCGGUCUGAUGAGUCUGGGCCGAGACGAAACAGC [GGGCCG]", "group label": "Criterion not met"}
{"biosequence": "GCUGUCACCGGUGUAUUACCCUAGUGGUCGACCGGUCUGAUGAGUCUUUGCGGAGACGAAACAGC [UUGCGG]", "group label": "Criterion not met"}
{"biosequence": "GCUGUCACCGGUGUAUUACCCUAGUGGUCGACCGGUCUGAUGAGUCUAUAGGGAGACGAAACAGC [AUAGGG]", "group label": "Criterion not met"}
{"biosequence": "GCUGUCACCGGUGUAUUACCCUAGUGGUCGACCGGUCUGAUGAGUCUGCUAACAGACGAAACAGC [GCUAAC]", "group label": "Criterion not met"}
{"biosequence": "GCUGUCACCGGUGUAUUACCCUAGUGGUCGACCGGUCUGAUGAGUCUAUAAAGAGACGAAACAGC [AUAAAG]", "group label": "Criterion met"}
{"biosequence": "GCUGUCACCGGUGUAUUACCCUAGUGGUCGACCGGUCUGAUGAGUCUGCAAAUAGACGAAACAGC [GCAAAU]", "group label": "Criterion not met"}
{"biosequence": "GCUGUCACCGGUGUAUUACCCUAGUGGUCGACCGGUCUGAUGAGUCUAGCGAAAGACGAAACAGC [AGCGAA]", "group label": "Criterion met"}
{"biosequence": "GCUGUCACCGGUGUAUUACCCUAGUGGUCGACCGGUCUGAUGAGUCUGCACGGAGACGAAACAGC [GCACGG]", "group label": "Criterion not met"}
{"biosequence": "GCUGUCACCGGUGUAUUACCCUAGUGGUCGACCGGUCUGAUGAGUCUGGCUCAAGACGAAACAGC [GGCUCA]", "group label": "Criterion not met"}
{"biosequence": "GCUGUCACCGGUGUAUUACCCUAGUGGUCGACCGGUCUGAUGAGUCUGCAACAAGACGAAACAGC [GCAACA]", "group label": "Criterion not met"}
{"biosequence": "GCUGUCACCGGUGUAUUACCCUAGUGGUCGACCGGUCUGAUGAGUCUCUGUAUAGACGAAACAGC [CUGUAU]", "group label": "Criterion not met"}
{"biosequence": "GCUGUCACCGGUGUAUUACCCUAGUGGUCGACCGGUCUGAUGAGUCUGGGUCCAGACGAAACAGC [GGGUCC]", "group label": "Criterion not met"}
{"biosequence": "GCUGUCACCGGUGUAUUACCCUAGUGGUCGACCGGUCUGAUGAGUCUGAUUGCAGACGAAACAGC [GAUUGC]", "group label": "Criterion met"}
{"biosequence": "GCUGUCACCGGUGUAUUACCCUAGUGGUCGACCGGUCUGAUGAGUCUAACGAGAGACGAAACAGC [AACGAG]", "group label": "Criterion met"}
{"biosequence": "GCUGUCACCGGUGUAUUACCCUAGUGGUCGACCGGUCUGAUGAGUCUGCAGGGAGACGAAACAGC [GCAGGG]", "group label": "Criterion not met"}
{"biosequence": "GCUGUCACCGGUGUAUUACCCUAGUGGUCGACCGGUCUGAUGAGUCUCAUCGAAGACGAAACAGC [CAUCGA]", "group label": "Criterion met"}
{"biosequence": "GCUGUCACCGGUGUAUUACCCUAGUGGUCGACCGGUCUGAUGAGUCUGAGCCAAGACGAAACAGC [GAGCCA]", "group label": "Criterion not met"}
{"biosequence": "GCUGUCACCGGUGUAUUACCCUAGUGGUCGACCGGUCUGAUGAGUCUUGCGCGAGACGAAACAGC [UGCGCG]", "group label": "Criterion not met"}
{"biosequence": "GCUGUCACCGGUGUAUUACCCUAGUGGUCGACCGGUCUGAUGAGUCUAUACAAAGACGAAACAGC [AUACAA]", "group label": "Criterion met"}
{"biosequence": "GCUGUCACCGGUGUAUUACCCUAGUGGUCGACCGGUCUGAUGAGUCUACUAAAAGACGAAACAGC [ACUAAA]", "group label": "Criterion met"}
{"biosequence": "GCUGUCACCGGUGUAUUACCCUAGUGGUCGACCGGUCUGAUGAGUCUCACUAAAGACGAAACAGC [CACUAA]", "group label": "Criterion not met"}
{"biosequence": "GCUGUCACCGGUGUAUUACCCUAGUGGUCGACCGGUCUGAUGAGUCUUCAGUUAGACGAAACAGC [UCAGUU]", "group label": "Criterion not met"}
{"biosequence": "GCUGUCACCGGUGUAUUACCCUAGUGGUCGACCGGUCUGAUGAGUCUUCGUGCAGACGAAACAGC [UCGUGC]", "group label": "Criterion met"}
{"biosequence": "GCUGUCACCGGUGUAUUACCCUAGUGGUCGACCGGUCUGAUGAGUCUGAGGGCAGACGAAACAGC [GAGGGC]", "group label": "Criterion not met"}
{"biosequence": "GCUGUCACCGGUGUAUUACCCUAGUGGUCGACCGGUCUGAUGAGUCUGCCAUGAGACGAAACAGC [GCCAUG]", "group label": "Criterion met"}
{"biosequence": "GCUGUCACCGGUGUAUUACCCUAGUGGUCGACCGGUCUGAUGAGUCUGGAGGAAGACGAAACAGC [GGAGGA]", "group label": "Criterion not met"}
{"biosequence": "GCUGUCACCGGUGUAUUACCCUAGUGGUCGACCGGUCUGAUGAGUCUUUCGAAAGACGAAACAGC [UUCGAA]", "group label": "Criterion met"}
{"biosequence": "GCUGUCACCGGUGUAUUACCCUAGUGGUCGACCGGUCUGAUGAGUCUGUCGAGAGACGAAACAGC [GUCGAG]", "group label": "Criterion met"}
{"biosequence": "GCUGUCACCGGUGUAUUACCCUAGUGGUCGACCGGUCUGAUGAGUCUACACCCAGACGAAACAGC [ACACCC]", "group label": "Criterion not met"}
{"biosequence": "GCUGUCACCGGUGUAUUACCCUAGUGGUCGACCGGUCUGAUGAGUCUUCGCCUAGACGAAACAGC [UCGCCU]", "group label": "Criterion not met"}
{"biosequence": "GCUGUCACCGGUGUAUUACCCUAGUGGUCGACCGGUCUGAUGAGUCUAACGCUAGACGAAACAGC [AACGCU]", "group label": "Criterion met"}
{"biosequence": "GCUGUCACCGGUGUAUUACCCUAGUGGUCGACCGGUCUGAUGAGUCUACUUAAAGACGAAACAGC [ACUUAA]", "group label": "Criterion met"}
{"biosequence": "GCUGUCACCGGUGUAUUACCCUAGUGGUCGACCGGUCUGAUGAGUCUCAAGAGAGACGAAACAGC [CAAGAG]", "group label": "Criterion not met"}
{"biosequence": "GCUGUCACCGGUGUAUUACCCUAGUGGUCGACCGGUCUGAUGAGUCUAAUGGGAGACGAAACAGC [AAUGGG]", "group label": "Criterion met"}
{"biosequence": "GCUGUCACCGGUGUAUUACCCUAGUGGUCGACCGGUCUGAUGAGUCUACAGUCAGACGAAACAGC [ACAGUC]", "group label": "Criterion met"}
{"biosequence": "GCUGUCACCGGUGUAUUACCCUAGUGGUCGACCGGUCUGAUGAGUCUCUAAACAGACGAAACAGC [CUAAAC]", "group label": "Criterion not met"}
{"biosequence": "GCUGUCACCGGUGUAUUACCCUAGUGGUCGACCGGUCUGAUGAGUCUACUGGUAGACGAAACAGC [ACUGGU]", "group label": "Criterion not met"}
{"biosequence": "GCUGUCACCGGUGUAUUACCCUAGUGGUCGACCGGUCUGAUGAGUCUGCAGUGAGACGAAACAGC [GCAGUG]", "group label": "Criterion met"}
{"biosequence": "GCUGUCACCGGUGUAUUACCCUAGUGGUCGACCGGUCUGAUGAGUCUUUAAGGAGACGAAACAGC [UUAAGG]", "group label": "Criterion met"}
